These data points were gathered from ChEMBL document CHEMBL1158444.

Target: Metabotropic glutamate receptor 4 (Rattus norvegicus) (UniProt P31423)
Sequence (P31423 whole entry): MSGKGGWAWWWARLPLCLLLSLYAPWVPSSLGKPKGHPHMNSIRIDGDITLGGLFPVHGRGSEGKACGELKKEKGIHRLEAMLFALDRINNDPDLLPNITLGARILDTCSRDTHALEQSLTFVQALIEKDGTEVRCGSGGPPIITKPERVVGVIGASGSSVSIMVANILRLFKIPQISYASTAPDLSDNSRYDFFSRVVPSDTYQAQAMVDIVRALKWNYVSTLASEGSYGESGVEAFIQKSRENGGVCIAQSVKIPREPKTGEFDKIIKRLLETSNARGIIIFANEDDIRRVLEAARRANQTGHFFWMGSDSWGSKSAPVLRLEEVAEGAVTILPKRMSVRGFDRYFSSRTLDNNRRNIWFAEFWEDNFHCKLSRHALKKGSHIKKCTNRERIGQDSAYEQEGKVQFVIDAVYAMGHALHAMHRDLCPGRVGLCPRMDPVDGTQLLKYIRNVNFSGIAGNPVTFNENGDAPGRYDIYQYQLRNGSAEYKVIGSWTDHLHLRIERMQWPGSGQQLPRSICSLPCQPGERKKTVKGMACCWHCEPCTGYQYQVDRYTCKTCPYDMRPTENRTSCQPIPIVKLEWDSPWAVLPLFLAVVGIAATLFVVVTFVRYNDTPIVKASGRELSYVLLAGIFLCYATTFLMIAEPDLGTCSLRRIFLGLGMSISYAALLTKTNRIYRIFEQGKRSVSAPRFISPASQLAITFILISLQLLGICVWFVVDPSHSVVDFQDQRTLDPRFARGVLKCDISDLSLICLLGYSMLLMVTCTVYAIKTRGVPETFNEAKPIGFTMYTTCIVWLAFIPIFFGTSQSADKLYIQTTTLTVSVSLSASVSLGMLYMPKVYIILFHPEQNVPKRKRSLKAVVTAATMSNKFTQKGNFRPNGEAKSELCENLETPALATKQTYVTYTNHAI
Experiment: Activity at rat mGluR4 expressed in HEK293 cells coexpressing Gqi5 protein assessed as fold shifting of glutamate-induced response to left at 30 uM
Type: cell-based
Returns one of TRUE or FALSE; TRUE when fold change (FC) is >= 30.

* COc1cc(NC(=O)c2ccccn2)ccc1C | TRUE
* O=C(Nc1ccc(F)c(C(F)(F)F)c1)c1ccccn1 | FALSE
* COc1ccc(NC(=O)c2ccccn2)cc1Cl | FALSE
* O=C(Nc1ccc(Cl)c(C(F)(F)F)c1)c1ccccn1 | FALSE
* COc1cc(NC(=O)c2ccccn2)ccc1Cl | TRUE

Is the recorded value of fold change (FC) equal to or greater than 30 for this molecule? O=C(Nc1cccc(Cl)c1)c1ccccn1
TRUE

Is the recorded value of fold change (FC) equal to or greater than 30 for this molecule? COc1cc(NC(=O)c2ccccn2)ccc1F
FALSE

Is the recorded value of fold change (FC) equal to or greater than 30 for this molecule? O=C(Nc1ccccc1)[C@]12C[C@H]1/C(=N\O)c1ccccc1O2
FALSE

----------
Molecular target: Metabotropic glutamate receptor 4 (Rattus norvegicus, UniProt P31423)
Sequence (P31423 whole entry): as above
Assay: Activity at rat mGluR4 receptor expressed in HEK293 cells assessed as effect on thallium flux
MEASURE: EC50

Some solved entries appear below for comparison.
• O=C(Nc1cccc(C(F)(F)F)n1)c1ccccn1 = > 10 µM
• COc1cc(NC(=O)c2ccccn2)ncn1 = > 10 µM

Note: attention shifts to another entry.
# lookup: Metabotropic glutamate receptor 4 (Rattus norvegicus, UniProt P31423) EC50, key = N#Cc1ccc(NC(=O)c2ccccn2)cc1C(F)(F)F
> 10 µM
